Origin of values: paper PMC6069857

- Test system: VM-CUB1
- experiment: High-content analysis-based fluorescent live/dead assay
- Assay type: cell-based, human
- experimental_parameters: VMCub1, HCA, 72 h
quantity_name: CC50 (µM)

>>> observed_result("O=C(NCC1(c2nc(-c3ccccc3)cs2)CCOCC1)c1cccc(-c2noc(C(F)(F)F)n2)c1")
20.1

###

- System: UM-UC-3
- experiment: High-content analysis-based fluorescent live/dead assay
- Type: cell-based, human
- experimental_parameters: UM-UC-3, HCA, 72 h
quantity_name: CC50 (µM)

>>> observed_result("O=C(NCC1(c2nc(-c3ccccc3)cs2)CCOCC1)c1cccc(-c2noc(C(F)(F)F)n2)c1")
14.6
